System: Danio rerio embryo (fli1:egfp)
Protocol text: arterial (dorsal aorta) circulation score at 72 hpf (normalized DA-Max (arbitrary units)); higher = more circulation
Measurement conditions: 6.25 µM; exposure: 5-72 hpf

Compound: CC(C)Oc1cc(-n2nc(C(C)(C)C)oc2=O)c(Cl)cc1Cl
arterial: 14.1

Compound: Cc1nn(-c2cc(NS(C)(=O)=O)c(Cl)cc2Cl)c(=O)n1C(F)F
arterial: 8.86

Compound: CCOC(=O)C(C)OC(=O)c1cc(Oc2ccc(C(F)(F)F)cc2Cl)ccc1[N+](=O)[O-] (stereo not given)
arterial: 4.85

Compound: C#CCN1C(=O)COc2cc(F)c(N3C(=O)C4=C(CCCC4)C3=O)cc21
arterial: 4.22

Compound: CCOC(=O)COc1cc(-c2nn(C)c(OC(F)F)c2Cl)c(F)cc1Cl
arterial: 3.84

Compound: O=C(O)c1cc(Oc2ccc(C(F)(F)F)cc2Cl)ccc1[N+](=O)[O-]
arterial: 14.2

Compound: CCOC(=O)COc1cc(-n2ncc(C(F)(F)F)c(C)c2=O)c(F)cc1Cl
arterial: 5.21

Compound: CCCCCOC(=O)COc1cc(N2C(=O)C3=C(CCCC3)C2=O)c(F)cc1Cl
arterial: 8.2

Compound: C=CCOC(=O)C(C)(C)OC(=O)c1cc(-n2c(=O)cc(C(F)(F)F)n(C)c2=O)ccc1Cl
arterial: 4.56

Compound: CC(C)[C@H](C(=O)O[C@H](C#N)c1cccc(Oc2ccccc2)c1)c1ccc(Cl)cc1 [Esfenvalerate]
arterial: 11.9

Compound: COC(=O)N(C(=O)N1CO[C@@]2(C(=O)OC)Cc3cc(Cl)ccc3C2=N1)c1ccc(OC(F)(F)F)cc1
arterial: 10.5

Compound: CCOC(=O)C(Cl)Cc1cc(-n2nc(C)n(C(F)F)c2=O)c(F)cc1Cl (stereo not given)
arterial: 8.33

Compound: CCOc1cc(Oc2ccc(C(F)(F)F)cc2Cl)ccc1[N+](=O)[O-]
arterial: 10.5

Compound: C#CCOC(=O)[C@@H](C)Oc1ccc(Oc2ncc(Cl)cc2F)cc1
arterial: 12.5

Compound: CCCCSP(=O)(SCCCC)SCCCC
arterial: 15

====

Test system: Danio rerio embryo (fli1:egfp)
Protocol text: intersegmental vessel area normalized to body length at 72 hpf (ISV area / body length (normalized units)); higher = more vessel area
Measurement conditions: 0.78 µM; exposure: 5-72 hpf
Response key: YES means intersegmental vessel area normalized >= 70; NO means intersegmental vessel area normalized < 70.

Compound: CO/N=C(/C1=NOCCO1)c1ccccc1Oc1ncnc(Oc2ccccc2Cl)c1F
Group label: NO

Compound: C=CCOC(=O)C(C)(C)OC(=O)c1cc(-n2c(=O)cc(C(F)(F)F)n(C)c2=O)ccc1Cl
Group label: NO

Compound: CC1(C)C(C(=O)OC(C#N)c2cccc(Oc3ccccc3)c2)C1(C)C (stereo not given)
Group label: YES

Compound: CC(C)Oc1cc(-n2nc(C(C)(C)C)oc2=O)c(Cl)cc1Cl
Group label: YES

====

Tested on: Danio rerio embryo (fli1:egfp)
Protocol text: arterial (dorsal aorta) circulation score at 72 hpf (normalized DA-Max (arbitrary units)); higher = more circulation
Measurement conditions: 0.195 µM; exposure: 5-72 hpf
Quick list: arterial per entry.
Metric name: arterial

Chemical smiles: CCOC(=O)COc1cc(-n2ncc(C(F)(F)F)c(C)c2=O)c(F)cc1Cl
Numeric value: 9.58
//
Chemical smiles: CO/N=C(/C(=O)OC)c1ccccc1CO/N=C(\C)c1cccc(C(F)(F)F)c1
Numeric value: 15.7
//
Chemical smiles: C=CCOC(=O)C(C)(C)OC(=O)c1cc(-n2c(=O)cc(C(F)(F)F)n(C)c2=O)ccc1Cl
Numeric value: 10.1
//
Chemical smiles: CCc1nn(C)c(C(=O)NCc2ccc(C(C)(C)C)cc2)c1Cl
Numeric value: 10.6
